Sourced from ChEMBL document CHEMBL6127085

protocol.text: Plasma protein binding in mouse at 1 uM incubated for 6 hrs by LC-MS/MS analysis
Assay type: ADME, cell-free
conditions: read-out: PPB (converted)
observed.property: fraction unbound at 6 h, 1 µM
One number for each entry.

Query: Which fraction unbound at 6 h, 1 µM is reported for this molecule? C[C@@H](O)[C@H](NC(=O)c1ccc(C#Cc2ccc(/C=N/N3CCCC3)cc2)cc1)C(=O)NO
Response: 0.002

----------
protocol.text: Half life in male Sprague-Dawley rat at 10 mg/kg, IG measured upto 24 hrs by LC-MS analysis
Type: ADME, organism-based
conditions: in vivo, po
Exercise: for every item that follows, state its recorded half-life.
Give bare numbers, in h.

compound	scale.unit	half-life
C[C@@H](O)[C@H](NC(=O)c1ccc(C#Cc2ccc(CN3CCOCC3)cc2)cc1)C(=O)NO	h	1.12

With those in mind, consider the next compound.
Query: Need half-life, item C[C@@H](O)[C@H](NC(=O)c1ccc(C#Cc2ccc(/C=N/N3CCCC3)cc2)cc1)C(=O)NO
Response: 2.5
